Test: Cytotoxicity against human lymphocytes measured after 72 hrs by MTT assay
Type: cell-based
Conditions: Lymphocyte
assay_metric: IC50 (µM)
Express it in µM; write the number only.

Q. Supply reported IC50 belonging to this compound: O=c1c2cc(N3CCN(c4ccccc4F)CC3)ccc2ncn1Cc1ccccc1
A. 197

* * *

Assay: Protective index, ratio of neurotoxicity in mouse to anticonvulasnt activity for MES-induced seizure mouse model
Format: toxicity, organism-based
Conditions: in vivo, read-out: PI
assay_metric: selectivity ratio

Q. Supply reported selectivity ratio belonging to this compound: O=c1c2ccccc2nc(-n2cncn2)n1-c1cccc(Br)c1
A. > 26

Q. Supply reported selectivity ratio belonging to this compound: O=c1c2ccccc2nc(-n2cncn2)n1-c1ccc(Cl)cc1
A. > 25.5

* * *

Exercise: state measured IC50 for each of the molecules provided.
Biological target: Thymidine phosphorylase (Escherichia coli K-12, UniProt P07650)
Sequence (P07650 whole entry): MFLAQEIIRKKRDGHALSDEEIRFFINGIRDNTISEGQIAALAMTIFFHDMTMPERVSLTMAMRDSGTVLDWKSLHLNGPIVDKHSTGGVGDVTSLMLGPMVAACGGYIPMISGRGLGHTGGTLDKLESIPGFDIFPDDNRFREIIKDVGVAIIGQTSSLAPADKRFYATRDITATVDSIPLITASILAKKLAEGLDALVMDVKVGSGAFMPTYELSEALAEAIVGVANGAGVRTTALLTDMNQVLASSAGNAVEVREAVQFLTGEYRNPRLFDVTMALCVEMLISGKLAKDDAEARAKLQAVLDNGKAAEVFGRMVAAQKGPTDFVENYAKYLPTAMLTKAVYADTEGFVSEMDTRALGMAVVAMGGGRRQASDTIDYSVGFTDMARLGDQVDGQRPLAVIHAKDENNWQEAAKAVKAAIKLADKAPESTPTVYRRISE
Test: Inhibition of recombinant Escherichia coli thymidine phosphorylase using thymidine as substrate measured after 10 mins at 30 degC by spectrophotometric method
Could you write the number and then its unit?

Q. # lookup: Thymidine phosphorylase (Escherichia coli K-12, UniProt P07650) IC50, key = O=c1[nH]c(-c2cc(O)ccc2O)nc2ccccc12
A. 59.5 µM

Q. # lookup: Thymidine phosphorylase (Escherichia coli K-12, UniProt P07650) IC50, key = O=c1[nH]c(-c2ccc(O)c(O)c2)nc2ccccc12
A. 42.9 µM
